Species on record: Rattus norvegicus
Assay: Rate of metabolism in liver microsomes (BNF treated rats)
Type: ADME
RPF by entry:

Here's what some known entries look like.
> print(dat)
                                   compound  measured.attribute    meas.value
1  CO[C@]1(C)C[C@@H](c2ccccc2)c2c(c3cccc(O)c3oc2=O)O1                 RPF  42.8 pM nM-1
2  COc1c([C@H](CC(C)=O)c2ccccc2)c(=O)oc2ccc(O)cc12                 RPF  11.5 pM nM-1

Please look up its RPF: COc1c([C@@H](CC(C)=O)c2ccccc2)c(=O)oc2ccc(O)cc12
19.1 pM nM-1

Need RPF of COC1(C)C[C@H](c2ccccc2)c2c(c3cc(O)ccc3oc2=O)O1 (some centres not stated) , thanks.
20.3 pM nM-1

// lookup RPF for COc1c([C@@H](CC(C)=O)c2ccccc2)c(=O)oc2cc(O)ccc12
31.2 pM nM-1

I am curious: what RPF value has been reported for COC1(C)C[C@@H](c2ccccc2)c2c(c3cc(O)ccc3oc2=O)O1 (some centres not stated) ?
14.8 pM nM-1

# RPF lookup, item COc1c([C@H](CC(C)=O)c2ccc(O)cc2)c(=O)oc2ccccc12
85.3 pM nM-1
